Recorded values, source patent US20100291106A1.

# test.target: T1, cynomolgus complement C3b protein (cynomolgus monkey (Macaca fascicularis))
# T1 construct: also called cyno C3b; cynoC3b
# protocol.summary: SPR (Biacore T100), C3b captured by anti-C3d antibody, IgG as analyte, 1:1 model
observation.type: kon (M⁻¹ s⁻¹)
The reply should contain only the number, in M⁻¹ s⁻¹.

Return kon for the following binder: MOR09611 IgG (antibody, V domains shown, Germlined human IgG1 with leucines 234 and 235 changed to alanines, kappa; also called antibody 9611) VH: EVQLVESGGGLVQPGGSLRLSCAASGFTFSSYWMTWVRQAPGKGLEWVSSIKIKPDGYAASVKGRFTISRDNSKNTLYLQMNSLRAEDTAVYYCARLFYQYFARMDYWGQGTLVTVSS VL: DIQMTQSPSSLSASVGDRVTITCRASQDISNYLNWYQQKPGKAPKLLIYAASNLQSGVPSRFSGSGSGTDFTLTISSLQPEDFATYYCQQHDTFRPTFGQGTKVEIKR
6.97e+06
